- Target Of Assay: ΔF508-CFTR (Homo sapiens, UniProt P13569, DEL508-508)
- Construct: host or cells: CFBE41o-, doxycycline-inducible
- Sequence (P13569 with tags, fused parts or gaps DEL508-508): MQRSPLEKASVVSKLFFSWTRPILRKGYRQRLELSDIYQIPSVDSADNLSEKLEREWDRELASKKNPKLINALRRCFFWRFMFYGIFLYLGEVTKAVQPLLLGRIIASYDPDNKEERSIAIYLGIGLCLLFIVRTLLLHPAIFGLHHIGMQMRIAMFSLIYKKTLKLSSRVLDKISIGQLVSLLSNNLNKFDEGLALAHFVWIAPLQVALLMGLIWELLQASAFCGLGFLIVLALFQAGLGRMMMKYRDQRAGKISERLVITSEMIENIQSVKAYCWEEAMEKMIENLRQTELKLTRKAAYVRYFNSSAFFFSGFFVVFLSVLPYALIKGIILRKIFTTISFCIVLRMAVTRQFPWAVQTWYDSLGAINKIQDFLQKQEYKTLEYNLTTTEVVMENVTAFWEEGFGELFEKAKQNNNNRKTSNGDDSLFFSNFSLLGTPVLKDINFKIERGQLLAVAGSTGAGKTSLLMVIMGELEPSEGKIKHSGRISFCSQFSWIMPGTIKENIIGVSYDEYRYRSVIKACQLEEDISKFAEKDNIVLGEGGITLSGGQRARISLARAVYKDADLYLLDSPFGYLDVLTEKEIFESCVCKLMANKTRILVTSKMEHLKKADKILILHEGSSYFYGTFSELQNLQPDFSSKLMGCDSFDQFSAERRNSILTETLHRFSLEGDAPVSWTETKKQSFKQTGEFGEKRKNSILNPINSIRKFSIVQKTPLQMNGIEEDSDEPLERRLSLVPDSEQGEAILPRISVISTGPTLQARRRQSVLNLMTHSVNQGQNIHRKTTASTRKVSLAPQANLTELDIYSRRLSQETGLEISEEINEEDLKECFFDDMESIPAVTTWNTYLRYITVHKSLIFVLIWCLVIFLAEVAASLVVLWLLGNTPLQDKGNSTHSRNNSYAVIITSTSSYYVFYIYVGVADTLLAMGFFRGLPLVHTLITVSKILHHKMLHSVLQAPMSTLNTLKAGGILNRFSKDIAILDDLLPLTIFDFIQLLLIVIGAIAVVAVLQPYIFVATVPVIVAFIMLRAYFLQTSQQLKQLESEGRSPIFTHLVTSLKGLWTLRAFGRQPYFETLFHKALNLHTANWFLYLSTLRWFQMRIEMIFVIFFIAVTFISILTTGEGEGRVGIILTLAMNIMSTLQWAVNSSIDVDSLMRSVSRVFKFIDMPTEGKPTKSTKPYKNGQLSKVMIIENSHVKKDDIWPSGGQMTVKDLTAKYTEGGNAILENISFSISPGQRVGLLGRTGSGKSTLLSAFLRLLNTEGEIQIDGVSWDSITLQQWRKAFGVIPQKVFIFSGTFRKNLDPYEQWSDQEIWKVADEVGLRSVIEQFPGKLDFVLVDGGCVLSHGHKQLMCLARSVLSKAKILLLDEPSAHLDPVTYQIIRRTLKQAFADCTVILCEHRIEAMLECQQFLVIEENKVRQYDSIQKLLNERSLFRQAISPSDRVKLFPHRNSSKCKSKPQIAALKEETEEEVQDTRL
- Procedure Details: CFTR cell surface levels using HRP-tagged ΔF508-CFTR expressing CFBE cells, in the presence of a co-corrector
- Type: cell-based
- Condition Context: HRP-tagged ΔF508-CFTR expressing CFBE cells, in the presence of 3 μM co-corrector
Recorded % Activation by entry
Your answer is read as %, so omit the unit and give the number.

A selection of reference data follows.
# Molecule, Unit Info, % Activation
measured = [
    ("Cc1nn(-c2ccccc2)c2nc(C(=O)O)cc(OCCN(CC(C)C)C3CC3)c12 [compound 385]", "%", 238.75),
    ("O=C(O)c1cc(OC(CN2CCOCC2)CN2CCOCC2)c2c(C3CCC3)nn(-c3ccccc3)c2n1 [compound 641]", "%", 239.75),
    ("CO[C@H]1CCN(c2cc(C(=O)O)nc3c2c(C2CCC2)nn3-c2ccccc2)C1 [compound 512]", "%", 286.4),
]

# input Entry CC(C)c1nn(-c2ccc(F)cc2)c2nc(C(=O)O)cc(N3CC(N4CCC(N(C)C5COC5)CC4)C3)c12 [compound 758] needs its % Activation filled in; supply it.
# output 139.5
